Target: Interleukin-1 receptor-associated kinase 3 (Homo sapiens); note: in the data inactive means no Kd found up to 30 µM
Sequence (Q9Y616 whole entry): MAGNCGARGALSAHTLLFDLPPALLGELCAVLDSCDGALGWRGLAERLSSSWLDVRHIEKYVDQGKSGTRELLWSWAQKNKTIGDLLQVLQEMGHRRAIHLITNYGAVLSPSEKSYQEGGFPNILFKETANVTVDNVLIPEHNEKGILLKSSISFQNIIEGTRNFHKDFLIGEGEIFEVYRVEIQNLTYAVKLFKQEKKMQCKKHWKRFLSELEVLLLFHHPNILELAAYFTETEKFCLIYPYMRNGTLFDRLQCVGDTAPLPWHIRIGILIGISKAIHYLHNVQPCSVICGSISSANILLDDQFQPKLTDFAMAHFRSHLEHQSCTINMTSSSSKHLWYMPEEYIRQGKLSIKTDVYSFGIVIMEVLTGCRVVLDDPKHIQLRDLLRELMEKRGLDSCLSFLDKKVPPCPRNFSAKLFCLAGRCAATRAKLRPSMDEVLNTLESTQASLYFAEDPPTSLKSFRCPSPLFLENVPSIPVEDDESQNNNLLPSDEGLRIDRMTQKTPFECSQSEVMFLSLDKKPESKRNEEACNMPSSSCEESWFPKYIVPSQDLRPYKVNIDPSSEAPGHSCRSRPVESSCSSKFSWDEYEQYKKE
Calls of active or inactive are those of the source.
Your answer must be one of the following: active, inactive

Completed entries (count: 2):
COMPOUND: COc1c(OCCCN2CCOCC2)ccc2c1N=C(NC(=O)c1cnc(N)nc1)N1CCN=C21
LABEL_VALUE: inactive
--
COMPOUND: CCn1cc(-c2ccnc3[nH]c(-c4cccc(CN(C)C)c4)cc23)c(-c2ccc(NC(=O)N(C)C)cc2)n1
LABEL_VALUE: inactive

Ask: Which outcome did this test record for the compound `Cc1csc(-c2nnc(Nc3ccc(Oc4ncccc4-c4ccnc(N)n4)cc3)c3ccccc23)c1` ?
Reply: inactive

Ask: Which outcome did this test record for the compound `CCOc1cc2ncc(C#N)c(Nc3ccc(F)c(Cl)c3)c2cc1NC(=O)/C=C/CN(C)C` ?
Reply: inactive
